Assay Text: amyloid nucleation score (Sup35N fusion, yeast selection) (log enrichment); library NNK2; higher = more nucleation; inactive = no reads after selection;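 further: zero at mode of non-aggregating sequences after 7 days selection at 30°C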
I would appreciate it if you labelled entries fulfilled when amyloid nucleation score is 0.2 or higher, otherwise not fulfilled.

[Q] Does NGLSSSTWGPWMYCWCVNMV have a reported amyloid nucleation score of at least 0.2?
[A] fulfilled

[Q] Does EFDDYSFICRILSALFES have a reported amyloid nucleation score of at least 0.2?
[A] not fulfilled

[Q] Does IVFVLLSYYLL have a reported amyloid nucleation score of at least 0.2?
[A] fulfilled

[Q] Does RMRLSYWHCISLGLVLLRPI have a reported amyloid nucleation score of at least 0.2?
[A] fulfilled

[Q] Does TTRAKHVHWYELHNVFMLQL have a reported amyloid nucleation score of at least 0.2?
[A] fulfilled

[Q] Does NLGDVSYTSSFG have a reported amyloid nucleation score of at least 0.2?
[A] fulfilled

[Q] Does QLENMCFFSPLQTYMLDRNW have a reported amyloid nucleation score of at least 0.2?
[A] not fulfilled

[Q] Does KVMVRLGSNSAAKYFYVNRV have a reported amyloid nucleation score of at least 0.2?
[A] fulfilled

[Q] Does SGLFFTHTFRKLVYRLRSTK have a reported amyloid nucleation score of at least 0.2?
[A] not fulfilled

[Q] Does KLVISAFPPIRNMVYTKCSK have a reported amyloid nucleation score of at least 0.2?
[A] not fulfilled

[Q] Does LCKYDGCMIAYGVLHSSSAG have a reported amyloid nucleation score of at least 0.2?
[A] fulfilled

[Q] Does SLDQFSFGC have a reported amyloid nucleation score of at least 0.2?
[A] not fulfilled

[Q] Does YSVIRS have a reported amyloid nucleation score of at least 0.2?
[A] not fulfilled

[Q] Does FVSLWT have a reported amyloid nucleation score of at least 0.2?
[A] fulfilled

[Q] Does VDTELKVNSYRPGWTEHSRT have a reported amyloid nucleation score of at least 0.2?
[A] fulfilled

[Q] Does DMERLAGYLQVRSKGMMRHT have a reported amyloid nucleation score of at least 0.2?
[A] not fulfilled

[Q] Does GGMDNQCHLVRCGRRSLAPV have a reported amyloid nucleation score of at least 0.2?
[A] fulfilled

[Q] Does YHEIFF have a reported amyloid nucleation score of at least 0.2?
[A] not fulfilled

[Q] Does GRVKTYTVGFVNIIHFSWLG have a reported amyloid nucleation score of at least 0.2?
[A] fulfilled

[Q] Does VHSNCSLNGPCMPMCVRRRW have a reported amyloid nucleation score of at least 0.2?
[A] fulfilled

[Q] Does VLPLGHWMAFMTREVCGADM have a reported amyloid nucleation score of at least 0.2?
[A] fulfilled

[Q] Does FEFVYFVRSIG have a reported amyloid nucleation score of at least 0.2?
[A] not fulfilled

[Q] Does EWVRWLVVLNLRSNAGNYDI have a reported amyloid nucleation score of at least 0.2?
[A] not fulfilled

[Q] Does APFQRPSSPTDREYRNGALL have a reported amyloid nucleation score of at least 0.2?
[A] fulfilled

[Q] Does NNRSGYEYVIEFRLTSAVHF have a reported amyloid nucleation score of at least 0.2?
[A] fulfilled

[Q] Does LFLFGSV have a reported amyloid nucleation score of at least 0.2?
[A] fulfilled

[Q] Does NCLLVLHFG have a reported amyloid nucleation score of at least 0.2?
[A] fulfilled

[Q] Does SPAQCIGVCNRLKLYCST have a reported amyloid nucleation score of at least 0.2?
[A] fulfilled

[Q] Does MYCLHCTTSCWSRLRLVNNF have a reported amyloid nucleation score of at least 0.2?
[A] fulfilled

[Q] Does GQLSVVKCRSY have a reported amyloid nucleation score of at least 0.2?
[A] fulfilled

[Q] Does YDIVVNYLNHHQR have a reported amyloid nucleation score of at least 0.2?
[A] fulfilled

[Q] Does QIPVELNNVLNLYLVLCRIE have a reported amyloid nucleation score of at least 0.2?
[A] not fulfilled

[Q] Does VSNCLQGLYFCWSTGSRSRI have a reported amyloid nucleation score of at least 0.2?
[A] fulfilled

[Q] Does MQTICSN have a reported amyloid nucleation score of at least 0.2?
[A] not fulfilled

[Q] Does DLQSRDYPMADIVHIGIQRH have a reported amyloid nucleation score of at least 0.2?
[A] not fulfilled

[Q] Does HFCVLLLSFKNKILNYAFMH have a reported amyloid nucleation score of at least 0.2?
[A] not fulfilled

[Q] Does DWTTAFSTF have a reported amyloid nucleation score of at least 0.2?
[A] not fulfilled

[Q] Does SAWQRIEWL have a reported amyloid nucleation score of at least 0.2?
[A] not fulfilled

[Q] Does WGCQLRSMQTMTRHR have a reported amyloid nucleation score of at least 0.2?
[A] fulfilled

[Q] Does MGFRGIHMRVCAFLRWYNNY have a reported amyloid nucleation score of at least 0.2?
[A] not fulfilled

[Q] Does AFCMDYAAQSAVTRSRDSCS have a reported amyloid nucleation score of at least 0.2?
[A] fulfilled

[Q] Does YYQSIGLQYSRMKMGCKRND have a reported amyloid nucleation score of at least 0.2?
[A] fulfilled

[Q] Does YPKFYIWYYVYRLLALTCVY have a reported amyloid nucleation score of at least 0.2?
[A] not fulfilled

[Q] Does RVSSYSQATKKLKHERFGDV have a reported amyloid nucleation score of at least 0.2?
[A] not fulfilled

[Q] Does GFFTPPRVRNNTSEGDVK have a reported amyloid nucleation score of at least 0.2?
[A] not fulfilled

[Q] Does NACYRFILISSMVRLSFSVW have a reported amyloid nucleation score of at least 0.2?
[A] fulfilled

[Q] Does HHGQTHHLMWNWIF have a reported amyloid nucleation score of at least 0.2?
[A] fulfilled

[Q] Does NSRTGTLREVHYLPDST have a reported amyloid nucleation score of at least 0.2?
[A] fulfilled

[Q] Does FDIPCSFVPVYHIKAFLCRM have a reported amyloid nucleation score of at least 0.2?
[A] not fulfilled

[Q] Does WSKEFEIGSNHSKSNTRCGR have a reported amyloid nucleation score of at least 0.2?
[A] fulfilled

[Q] Does VRKSHS have a reported amyloid nucleation score of at least 0.2?
[A] fulfilled

[Q] Does AGPAQQYMCMTCVTSVHTDP have a reported amyloid nucleation score of at least 0.2?
[A] fulfilled

[Q] Does CSKLAGKHVNISVGPLWRAG have a reported amyloid nucleation score of at least 0.2?
[A] not fulfilled

[Q] Does RLYVTSYIY have a reported amyloid nucleation score of at least 0.2?
[A] fulfilled

[Q] Does YYDFVVNGGDGLSIEYNSRG have a reported amyloid nucleation score of at least 0.2?
[A] fulfilled

[Q] Does SPLEKATRFPTWEQCTVASM have a reported amyloid nucleation score of at least 0.2?
[A] fulfilled

[Q] Does IRMNIFASSTR have a reported amyloid nucleation score of at least 0.2?
[A] fulfilled

[Q] Does AHHCVGYCSHIFQDPRGRVM have a reported amyloid nucleation score of at least 0.2?
[A] fulfilled

[Q] Does ILVNLVVVIKSSYRLSKCRF have a reported amyloid nucleation score of at least 0.2?
[A] not fulfilled

[Q] Does YINKKLGEAKGRDLLVRLGQ have a reported amyloid nucleation score of at least 0.2?
[A] fulfilled

[Q] Does ITISLLLGHYDCCCVTLLQE have a reported amyloid nucleation score of at least 0.2?
[A] fulfilled

[Q] Does VWIAKKGQRSRFQLRSGMCA have a reported amyloid nucleation score of at least 0.2?
[A] fulfilled

[Q] Does RYGERIFV have a reported amyloid nucleation score of at least 0.2?
[A] fulfilled

[Q] Does QGSNCLHYRLSIIS have a reported amyloid nucleation score of at least 0.2?
[A] not fulfilled

[Q] Does TCSRDVFGWTVLGTGLPPLR have a reported amyloid nucleation score of at least 0.2?
[A] fulfilled

Reference source: the supplement of paper PMC12042874
